System: P388 leukemia ip, CD2F1 mice, survival T/C
Assay Text: NCI In Vivo Anticancer Drug Screen. Data for tumor model P388 Leukemia (intraperitoneal) in CD2F1 (CDF1) mice
Particulars: endpoint: median survival time; dose: 200.0 mg/kg/injection; schedule: Q01DX009 (ip); vehicle: saline with Tween-80; higher = longer survival
Toxic doses and inconclusive results are not listed.
Recorded Endpoint: T/C

* c1ccc2cc(N3CCOCC3)ccc2c1 | 119 % of control
* CC(C)(Oc1ccc(C(=O)c2ccc(Cl)cc2)cc1)C(=O)O | 111 % of control
* CC(O)C(NC(=O)c1ccccc1)C(=O)O (stereo not drawn) | 91 % of control
* CC(C)(C)C(CCC(=O)O)CC(=O)O (stereo not drawn) | 100 % of control
* CCOC(=O)c1cc([N+](=O)[O-])c[nH]1 | 95 % of control
* C[C@]12CCC(=O)C[C@H]1CC[C@@H]1[C@@H]2CC[C@@]2(C)[C@H]1CC[C@]2(C)O | 95 % of control
* COc1cc(C(=O)c2c(OC)cccc2C(=O)O)c(OC)cc1C | 99 % of control
* O=[N+]([O-])c1ccc(Sc2ccccn2)nc1Sc1ccccn1 | 92 % of control
* CN(C=O)S(C)(=O)=O | 100 % of control
* Cc1cc(O)c(NCCN(C)C)c2c(=O)c3ccccc3sc12 | 100 % of control
* O=C(N/N=C/c1ccc(/C=N/NC(=O)c2cccnc2)cc1)c1cccnc1 | 93 % of control
* NN1C(=O)c2ccccc2C1=O | 95 % of control
* COC(=O)C1CC1(Cl)OC (stereo not drawn) | 105 % of control

* * *

Test system: P388 leukemia ip, CD2F1 mice, survival T/C
Assay Text: NCI In Vivo Anticancer Drug Screen. Data for tumor model P388 Leukemia (intraperitoneal) in CD2F1 (CDF1) mice
Particulars: endpoint: median survival time; dose: 50.0 mg/kg/injection; schedule: Q01DX009 (ip); vehicle: saline with Tween-80; higher = longer survival
Toxic doses and inconclusive results are not listed.
Recorded Endpoint: T/C

- Cc1nc(SCC(=O)O)n[nH]1: 103 % of control
- CCCCN1C(=O)/C(=C/c2ccc(OC)c(OC)c2OC)SC1=S: 93 % of control
- CSCNC(=S)Nc1ccc(Cl)c(Cl)c1: 100 % of control
- CC(=O)c1ccc(-c2ccc(C(C)=O)cc2)cc1: 96 % of control
- COC(NC(N)=O)C(=O)O (configuration not stated): 99 % of control
- COc1ccc(COCc2ccc(OC)c(O)c2)cc1O: 101 % of control
- Cc1c([N+](=O)[O-])ccn1C: 98 % of control
- O=C(O)c1cc(=O)n(CCCCCCn2c(=O)cc(C(=O)O)[nH]c2=O)c(=O)[nH]1: 98 % of control
- C/C(=N\NC(=S)Nc1ccc(N(C)C)cc1)c1ccccn1: 118 % of control
- CC(C)(C)C(CCC(=O)O)CC(=O)O (configuration not stated): 100 % of control
- N#CS.N=C=S.O=N[O-].[Co+3].[NH2-].[NH2-].[NH2-].[NH2-]: 89 % of control
- Cc1ccc(C)c2c1C(=O)c1c(C)ccc(C)c1C2(O)C#Cc1ccccc1: 98 % of control

Where do these numbers come from? They come from PubChem BioAssay AID330.
